Tested on: HeLa
Assay comment: Cytotoxicity against human HeLa cells assessed as cell death after 48 to 72 hrs by XTT assay
Type: functional, cell-based
Run conditions: Homo sapiens, HeLa; read-out: EC50
pEC50: −log10 of the molar value.

[
  {
    "Chem smiles": "COc1ccc(OC)c(C2=Nc3nc4ccccn4c3C(=O)[C@H](Cc3ccccc3)N2)c1",
    "System tested": "HeLa",
    "pEC50": 4.40
  },
  {
    "Chem smiles": "COc1cc(C2=Nc3nc4ccccn4c3C(=O)[C@H](Cc3ccccc3)N2)cc(OC)c1OC",
    "System tested": "HeLa",
    "pEC50": 4.27
  },
  {
    "Chem smiles": "COc1ccc(C2=Nc3nc4ccccn4c3C(=O)[C@H](Cc3ccccc3)N2)cc1OC",
    "System tested": "HeLa",
    "pEC50": 4.61
  }
]
